System: SNU-423 (Hepatocellular Carcinoma)
Assay: Bliss excess, mean over the matrix (fraction); higher = more synergy
I'd be grateful if you could share measured Bliss excess for these entries.
Give the value as a plain number.

# Bliss excess of COc1cc2c(cc1OCCCCCOc1cc3c(cc1OC)C(=O)N1C=C(C)C[C@H]1C=N3)N=C[C@@H]1CC(C)=CN1C2=O [SG3199] + O=C(c1cc(Cc2n[nH]c(=O)c3ccccc23)ccc1F)N1CCN(C(=O)C2CC2)CC1 [Olaparib] (first compound max 0.001 µM, 7x7, partner max 10 µM) = -0.0238

Field Bliss excess (entry O=C(c1cc(Cc2n[nH]c(=O)c3ccccc23)ccc1F)N1CCN(C(=O)C2CC2)CC1 [Olaparib] + Cc1c2c(nn1C)CSCc1cc(n(C)n1)CSc1cc(c3ccccc3c1)OCCCc1c(C(=O)O)n(C)c3c-2c(Cl)ccc13 [AZD5991] (first compound max 10 µM, 7x7, partner max 1 µM) ) reads -0.0503

Query Cc1cc2ncnn2cc1Nc1ncc2c(n1)n(C1CCOCC1)c(=O)n2C [AZD7648] + COc1cc([C@@H]2c3cc4c(cc3[C@@H](O[C@@H]3O[C@@H]5CO[C@@H](C)O[C@H]5[C@H](O)[C@H]3O)[C@H]3COC(=O)[C@H]23)OCO4)cc(OC)c1O [Etoposide] (first compound max 10 µM, 7x7, partner max 10 µM) yields Bliss excess of 0.0551

---

Tested on: COR-L88 (Small Cell Lung Carcinoma)
Test: combination Emax (second highest fraction inhibited in the dose matrix, 72 h); higher = more inhibition; extreme values may be limits of the assay
Please respond with reported combination Emax for every item in the list.
Lab note: jot down the number only; don't add units.

So the reported combination Emax for CC(=O)Nc1cccc(-n2c(=O)n(C3CC3)c(=O)c3c(Nc4ccc(I)cc4F)n(C)c(=O)c(C)c32)c1 [Trametinib] + Cc1nc(-c2cn3c(n2)-c2ccc(-c4cnn(C(C)(C)C(N)=O)c4)cc2OCC3)n(C(C)C)n1 [Taselisib] (first compound max 1 µM, 7x7, partner max 10 µM) , on COR-L88 (Small Cell Lung Carcinoma), turned out to be 0.154

Entry NC1(C(=O)N[C@@H](CCO)c2ccc(Cl)cc2)CCN(c2ncnc3[nH]ccc23)CC1 [Capivasertib] + Cn1cnc2c(F)c(Nc3ccc(Br)cc3Cl)c(C(=O)NOCCO)cc21 [Selumetinib] (first compound max 10 µM, 7x7, partner max 10 µM) ; assay system COR-L88 (Small Cell Lung Carcinoma); combination Emax recorded at 0.257

Record for COc1nnc2ccc(N3CCC(c4ccc(OCCN5CCN(C)C(=O)[C@H]5C)cc4)CC3)nn12 [AZD5153] + CCN(CCO)CCCOc1ccc2c(Nc3cc(CC(=O)Nc4cccc(F)c4)[nH]n3)ncnc2c1 [AZD2811] (first compound max 1 µM, 7x7, partner max 1 µM) under target or system COR-L88 (Small Cell Lung Carcinoma): combination Emax reported as 0.237

Measured on COR-L88 (Small Cell Lung Carcinoma), COc1nnc2ccc(N3CCC(c4ccc(OCCN5CCN(C)C(=O)[C@H]5C)cc4)CC3)nn12 [AZD5153] + C[C@@H]1COCCN1C2=NC(=NC(=C2)C3(CC3)[S@](=N)(=O)C)C4=C5C=CNC5=NC=C4 [AZD6738] (first compound max 1 µM, 7x7, partner max 10 µM) has a documented combination Emax of 0.548

---

Answer each item with its documented Bliss excess.
Test system: T84 (Colorectal Carcinoma)
Assay: Bliss excess, mean over the matrix (fraction); higher = more synergy

The compound C=CCn1c(=O)c2cnc(Nc3ccc(N4CCN(C)CC4)cc3)nc2n1-c1cccc(C(C)(C)O)n1 [AZD1775] + O=C(c1cc(Cc2n[nH]c(=O)c3ccccc23)ccc1F)N1CCN(C(=O)C2CC2)CC1 [Olaparib] (first compound max 1 µM, partner max 10 µM) on T84 (Colorectal Carcinoma): Bliss excess was -0.0136

Noted Bliss excess for NC1(C(=O)N[C@@H](CCO)c2ccc(Cl)cc2)CCN(c2ncnc3[nH]ccc23)CC1 [Capivasertib] + CC(C)n1c(=O)n(C)c2cnc3cc(F)c(-c4ccc(OCCCN5CCCCC5)nc4)cc3c21 [AZD1390] (first compound max 10 µM, 7x7, partner max 0.3 µM) , tested on T84 (Colorectal Carcinoma): -0.0417

Tested on T84 (Colorectal Carcinoma): N#Cc1cnc(Nc2cc(NC[C@H]3CNCCO3)c(C(F)(F)F)cn2)cn1 [SRA737] + Nc1ccn([C@@H]2O[C@H](CO)[C@@H](O)C2(F)F)c(=O)n1 [Gemcitabine] (first compound max 10 µM, 7x7, partner max 0.3 µM) . Observed Bliss excess: 0.0819

// Bliss excess (T84 (Colorectal Carcinoma)) for CN(CCO)CC[C@H](CSc1ccccc1)Nc1ccc(S(=O)(=O)NC(=O)c2ccc(N3CCC([C@@H](O)c4ccccc4-c4ccc(Cl)cc4)CC3)cc2)cc1S(=O)(=O)C(F)(F)F [AZD4320] + C=CCn1c(=O)c2cnc(Nc3ccc(N4CCN(C)CC4)cc3)nc2n1-c1cccc(C(C)(C)O)n1 [AZD1775] (first compound max 1 µM, partner max 1 µM) = -0.0408

Entry CN(C)CCCOc1ccc(-c2ccc3ncc4c(c3c2)n(C2CCOCC2)c(=O)n4C)cn1 [AZD0156] + O=C(c1cc(Cc2n[nH]c(=O)c3ccccc23)ccc1F)N1CCN(C(=O)C2CC2)CC1 [Olaparib] (first compound max 3 µM, partner max 3 µM) ; assay system T84 (Colorectal Carcinoma); Bliss excess recorded at -0.0535

The reported T84 (Colorectal Carcinoma) Bliss excess of C[C@@H](Oc1cc(-c2cnn(C3CCNCC3)c2)cnc1N)c1c(Cl)ccc(F)c1Cl [Crizotinib] + Cn1cnc2c(F)c(Nc3ccc(Br)cc3Cl)c(C(=O)NOCCO)cc21 [Selumetinib] (first compound max 10 µM, 7x7, partner max 10 µM) is -0.0143

// compound CC1(C)CCC(CN2CCN(c3ccc(C(=O)NS(=O)(=O)c4ccc(NCC5CCOCC5)c([N+](=O)[O-])c4)c(Oc4cnc5[nH]ccc5c4)c3)CC2)=C(c2ccc(Cl)cc2)C1 [Venetoclax] + Cc1cc2ncnn2cc1Nc1ncc2c(n1)n(C1CCOCC1)c(=O)n2C [AZD7648] (first compound max 1 µM, 7x7, partner max 10 µM) , assay T84 (Colorectal Carcinoma), Bliss excess value: -0.0267

// Bliss excess (T84 (Colorectal Carcinoma)) for CC1(C)CCC(CN2CCN(c3ccc(C(=O)NS(=O)(=O)c4ccc(NCC5CCOCC5)c([N+](=O)[O-])c4)c(Oc4cnc5[nH]ccc5c4)c3)CC2)=C(c2ccc(Cl)cc2)C1 [Venetoclax] + COc1cc(Nc2ncc3c(n2)-c2ccc(Cl)cc2C(c2c(F)cccc2OC)=NC3)ccc1C(=O)O [Alisertib] (first compound max 1 µM, 7x7, partner max 10 µM) = 0.0136

Tested system T84 (Colorectal Carcinoma); Bliss excess recorded for COc1cccc(OCCCN)c1-c1cc(Nc2cnc(C#N)cn2)n[nH]1 [Prexasertib] + C[C@@H]1COCCN1C2=NC(=NC(=C2)C3(CC3)[S@](=N)(=O)C)C4=C5C=CNC5=NC=C4 [AZD6738] (first compound max 1 µM, 7x7, partner max 10 µM) was -0.0026

C=CCn1c(=O)c2cnc(Nc3ccc(N4CCN(C)CC4)cc3)nc2n1-c1cccc(C(C)(C)O)n1 [AZD1775] + CCc1c2c(nc3ccc(O)cc13)-c1cc3c(c(=O)n1C2)COC(=O)[C@]3(O)CC [SN-38] (first compound max 1 µM, partner max 0.3 µM) on T84 (Colorectal Carcinoma) gives Bliss excess = 0.0598

Observed Bliss excess, T84 (Colorectal Carcinoma), N#Cc1cnc(Nc2cc(NC[C@H]3CNCCO3)c(C(F)(F)F)cn2)cn1 [SRA737] + C=CCn1c(=O)c2cnc(Nc3ccc(N4CCN(C)CC4)cc3)nc2n1-c1cccc(C(C)(C)O)n1 [AZD1775] (first compound max 10 µM, partner max 1 µM) : 0.0022

Sample CN(CCO)CC[C@H](CSc1ccccc1)Nc1ccc(S(=O)(=O)NC(=O)c2ccc(N3CCC([C@@H](O)c4ccccc4-c4ccc(Cl)cc4)CC3)cc2)cc1S(=O)(=O)C(F)(F)F [AZD4320] + CS(=O)(=O)CCNCc1ccc(-c2ccc3ncnc(Nc4ccc(OCc5cccc(F)c5)c(Cl)c4)c3c2)o1 [Lapatinib] (first compound max 1 µM, 7x7, partner max 10 µM) , system: T84 (Colorectal Carcinoma). Its Bliss excess is -0.0061

Recorded Bliss excess for C[C@@H]1COCCN1c1cc(C2([S@](C)(=N)=O)CC2)nc(-c2ccnc3[nH]ccc23)n1 [AZD6738] + Nc1ccn([C@@H]2O[C@H](CO)[C@@H](O)C2(F)F)c(=O)n1 [Gemcitabine] (first compound max 10 µM, 7x7, partner max 0.3 µM) on T84 (Colorectal Carcinoma) was 0.0477

Readout Bliss excess for COc1nnc2ccc(N3CCC(c4ccc(OCCN5CCN(C)C(=O)[C@H]5C)cc4)CC3)nn12 [AZD5153] + CCN(CCO)CCCOc1ccc2c(Nc3cc(CC(=O)Nc4cccc(F)c4)[nH]n3)ncnc2c1 [AZD2811] (first compound max 1 µM, 7x7, partner max 1 µM) , test system T84 (Colorectal Carcinoma), was -0.0536
